- Tested on: IgM in sera
- PROCEDURE DETAILS: Antigen microarray, serum IgM binding to TCR gamma constant region peptides
- Design: species or system human
- STATED CONDITIONS: HEALTHY CONTROLS, mean of 12 subjects; serum 1:5
- Procedure: The antigenicity of peptides derived from human T-cell receptor gamma-chain constant region (accession no: AAB63314; SEQ ID NO:173) was essayed using antigen array technology, as detailed below. […] Antigen microarray: Antigens diluted in PBS were placed in 384-well plates at a concentration of 1 μg/μl. […] The quantitative range of signal intensity of binding to each antigen spot was 0.01-65,000, and this range of detection made it possible to record reliable data with little dilution of test samples. […]
READOUT NAME: Antigen Binding (Mean Intensity) IgM

- AYYMYLLLLLKSVVYFAIIT [SEQ ID NO:166]: 87
- DQEIIFPPIKT [SEQ ID NO:161]: 86
- KEHRCIVDTLLLQL [SEQ ID NO:165]: 97
- KAGTYLCLLEKFFPDVIKI [SEQ ID NO:158]: 1753
- KPTIFLPSSWLTVPE [SEQ ID NO:164]: −24
- VVYFAIITCCLLRRTAFCCN [SEQ ID NO:167]: 548
